target: T1, human LTBR on cells (human, UniProt P36941 31-435); assay: FACS CHO-huLTBR
T1 construct: also called recombinant human LTBR CHO cells; CHO-K1 cells overexpressing human LTBR
PARAMETER: EC50 (µg/mL)
Numbers only, in µg/mL.

P1AF0079 (antibody, human IgG1, kappa, L234A L235A, V domains shown, human IgG1 PG LALA; from transgenic rabbit immunization; also called LTBR (0079)) VH: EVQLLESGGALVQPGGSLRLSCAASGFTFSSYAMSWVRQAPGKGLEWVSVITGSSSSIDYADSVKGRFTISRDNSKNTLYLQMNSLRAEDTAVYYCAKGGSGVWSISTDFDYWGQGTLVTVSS VL: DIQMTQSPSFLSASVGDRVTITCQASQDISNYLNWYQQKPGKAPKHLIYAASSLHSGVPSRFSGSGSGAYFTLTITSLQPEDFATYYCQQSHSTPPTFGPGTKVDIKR ... 0.321

Next binder, EC50 to be filled in.
The reported value for P1AE9459 (antibody, human IgG1, kappa, L234A L235A, V domains shown, human IgG1 PG LALA; from transgenic rabbit immunization) VH: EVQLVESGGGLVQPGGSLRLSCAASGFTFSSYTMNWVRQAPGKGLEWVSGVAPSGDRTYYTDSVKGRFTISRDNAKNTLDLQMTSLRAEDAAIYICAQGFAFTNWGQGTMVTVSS VL: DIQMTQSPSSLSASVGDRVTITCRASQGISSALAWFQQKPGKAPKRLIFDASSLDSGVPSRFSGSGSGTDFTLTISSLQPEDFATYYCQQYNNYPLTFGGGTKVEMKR in terms of EC50 is 0.147
